Test system: L1210 leukemia ip in BDF1 mice, survival T/C
Assay: NCI In Vivo Anticancer Drug Screen. Data for tumor model L1210 Leukemia (intraperitoneal) in B6D2F1 (BDF1) mice
Conditions: endpoint: mean survival time; dose: 6.25 mg/kg/injection; schedule: Q01DX009 (ip); vehicle: Klucel (hydroxypropylcellulose) (HPC); higher = longer survival
Inconclusive results and toxic doses are left out.

| CHEMICAL_STRING | T/C |
| --- | --- |
| CC1(C)COC(=S)N1 | 103 % of control |
| O=C(CCCN1CCC(n2c(=O)[nH]c3ccccc32)CC1)c1ccc(F)cc1 | 92 % of control |
| N#CC(C#N)=C(C#N)C#N | 91 % of control |
| C=[CH][Sn]([CH]=C)([CH]=C)[O]C(C)=O | 98 % of control |
| CCOC(=O)Nc1cc2c(c(N)n1)N=C(CN(C)c1ccccc1)CN2 | 116 % of control |
| N#Cc1ccc(Br)cc1[N+](=O)[O-] | 103 % of control |
| CCCCN=Cc1ccccc1O.CCCCN=Cc1ccccc1O.[Cu] | 91 % of control |
